The reported numbers originate from ChEMBL document CHEMBL1152630.

- Organism: Sus scrofa
- Test Details: Inhibition of porcine kidney tissue non-specific alkaline phosphatase assessed as residual enzyme activity at 0.4 mM in presence of 4% DMSO at pH 10.4 at 37 degC relative to untreated control
Measured Quantity: Activity

| Compound | Measured Quantity | Value Reported |
| --- | --- | --- |
| N#Cc1ccc(Oc2c[s+]([O-])c3ccccc23)cc1 (stereo not drawn) | Activity | 67% |
| C1=CN2CC(c3csc4ccccc34)N=C2S1 (stereo not drawn) | Activity | 11% |
| COc1ccc(Oc2csc3ccccc23)cc1 | Activity | 82% |
| COc1ccc(-c2cc3ccccc3s2)c([N+](=O)[O-])c1 | Activity | 96% |
| N#Cc1c(-c2ccc(C(F)(F)F)cc2)sc2ccccc12 | Activity | 97% |
| Cc1ccc(-c2cc3ccccc3s2)c(N)c1 | Activity | 93% |
| CN(C)c1cccc(-c2sc3ccccc3c2CN)c1 | Activity | 84% |
| N#Cc1ccccc1-c1sc2ccccc2c1C=O | Activity | 79% |
| COc1c(-c2ccccc2C)sc2ccccc12 | Activity | 96% |
| Clc1cccc(-c2cc3ccccc3s2)c1 | Activity | 96% |
| N#Cc1ccccc1-c1sc2ccccc2c1Oc1ccc(F)cc1 | Activity | 85% |
| N#Cc1ccccc1-c1sc2ccccc2c1Oc1ccccc1 | Activity | 91% |
| COc1cccc(C(=O)c2c(-c3ccc(OC)cc3[N+](=O)[O-])sc3ccccc23)c1 | Activity | 100% |
